Biological target: recombinant IL4I1 (Homo sapiens, UniProt Q96RQ9)
Sequence (Q96RQ9 22-567): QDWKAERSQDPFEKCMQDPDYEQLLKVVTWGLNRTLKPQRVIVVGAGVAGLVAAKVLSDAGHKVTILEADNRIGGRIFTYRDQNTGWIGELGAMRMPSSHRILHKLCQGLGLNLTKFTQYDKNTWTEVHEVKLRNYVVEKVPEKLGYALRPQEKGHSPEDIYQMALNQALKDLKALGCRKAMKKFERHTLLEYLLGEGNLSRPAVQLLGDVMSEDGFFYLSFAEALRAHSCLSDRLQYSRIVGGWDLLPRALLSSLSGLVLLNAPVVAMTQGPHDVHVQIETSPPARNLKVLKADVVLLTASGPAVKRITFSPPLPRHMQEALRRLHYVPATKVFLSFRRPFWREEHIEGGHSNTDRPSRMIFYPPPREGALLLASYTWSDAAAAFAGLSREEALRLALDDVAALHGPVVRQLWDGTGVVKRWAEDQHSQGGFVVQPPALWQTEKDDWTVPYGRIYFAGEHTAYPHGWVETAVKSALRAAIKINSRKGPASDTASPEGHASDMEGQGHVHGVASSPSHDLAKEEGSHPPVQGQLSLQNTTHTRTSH
Assay: IL4I1 Enzymatic Assay (Amplex Red/HRP coupled detection of H2O2, fluorescence)
Conditions: 1 nM recombinant IL4I1; four-hour pre-incubation with compound; 1 mM each Phe, Tyr, Trp; ten-point titration
Text: Interleukin 4 inducible protein 1 (IL4I1) is an L-amino oxidase that catalyzes the oxidation of aromatic residues (Phe, Trp and Tyr): L-amino acid+H2O+O2→2-oxo acid+NH3+H2O2. […] In this assay, the hydrogen peroxide generated by IL4I1 is then detected through a coupled reaction with Amplex Red (10-acetyl-3,7-dihydroxyphenoxazine) and […] (HRP) to produce Resorufin product that could be detected in the form of fluorescence signals. […]
pEC50: −log10 of the molar value.
measuredEndpoint: pEC50

Answered cases to consult:
O=C(NCc1nnc(-c2ccccc2)s1)c1cn(CCF)nn1
8.70
Cc1nc(OC(F)F)ccc1-n1cc(C(=O)NCc2nnc(-c3ccccc3)s2)nn1
8.10
C[C@H](O)Cn1cc(C(=O)NCc2nnc(-c3ccccc3)s2)nn1
7.57
COCc1ccc(C(=O)NCc2nnc(-c3ccccc3)s2)o1
6.26
O=C(NCc1nnc(-c2ccccc2)s1)c1cn(C2CS(=O)(=O)C2)nn1
7.14

I = Cc1cc(C(=O)NCc2nnc(-c3ccccc3)s2)oc1C
II = O=C(NCc1nnc(-c2ccccc2)s1)c1cc2c(s1)CCC2
III = O=C(NCc1nnc(-c2ccccc2)s1)c1cn([C@@H]2C[C@H]2CO)nn1 (single isomer, unassigned) [Example 142]
IV = Cc1nc(N)ccc1-n1cc(C(=O)NCc2nnc(-c3ccccc3)s2)nn1
Number of compounds to sort: 4. Sort criterion: pEC50, ascending. Put the labels in the requested order and list them out.
I, II, III, IV

A = CC(NC(=O)c1cn(C2CC2)nn1)c1nnc(-c2ccccc2)s1 (single isomer, unassigned) [Example 244]
B = COC(=O)C(C)(C)n1cc(C(=O)NCc2nnc(-c3ccccc3)s2)nn1
C = N#CCCCCn1cc(C(=O)NCc2nnc(-c3ccccc3)s2)nn1
D = O=C(NCc1nnc(-c2ccccc2)s1)c1cn(-c2ccncc2)nn1
Number of compounds to sort: 4. Sort criterion: pEC50, ascending. Put the labels in the requested order and list them out.
A, D, B, C
(A: 6.23, D: 6.79, B: 7.35, C: 7.57)

a = CC(O)c1cc(C(=O)NCc2nnc(-c3ccccc3)s2)on1 (single isomer, unassigned) [Example 330]
b = Cc1ccc(-n2cc(C(=O)NCc3ccc(-c4ccsc4)nn3)nn2)c(C)n1
Lab note: check whether a or b shows the higher recorded pEC50. # reply format: chosen label
b

I = Cc1ccc(-n2cc(C(=O)NCc3nnc(-c4ccccc4)s3)nn2)c(Cl)n1
II = O=C(NCc1nnc(-c2ccccc2)s1)c1cn(Cc2cc[nH]n2)nn1
III = O=C(NCc1nnc(-c2ccccc2)s1)c1cn(CC2(O)CCC2)nn1
IV = Cc1ccc(-c2cc(C(=O)NCc3nnc(-c4ccccc4)s3)no2)c(C)n1
Rank entries according to their pEC50, from the largest number down. Put the labels in the requested order and list them out.
II, I, IV, III

I = Cc1ccc(-n2cc(C(=O)NCc3cc(-c4cccc(Cl)c4)no3)nn2)c(C)n1
II = O=C(NCc1nnc(-c2ccccc2)s1)c1cn(Cc2ccncc2)nn1
Between item I and item II , which reported pEC50 is smaller? # reply format: chosen label
I

a = O=C(NCc1nnc(-c2ccccc2)s1)c1cn(CC(F)(F)CO)nn1
b = COc1c(C(=O)NCc2nnc(-c3ccccc3)s2)csc1Cl
c = CC(C(N)=O)n1cc(C(=O)NCc2nnc(-c3ccccc3)s2)nn1 (single isomer, unassigned) [Example 318]
d = O=C(NCc1nnc(-c2ccccc2)s1)c1cn(C2C[C@@H]2C(F)F)nn1 (single isomer, unassigned) [Example 144]
e = CC(n1cc(C(=O)NCc2nnc(-c3ccccc3)s2)nn1)C(F)(F)F (stereo not shown)
Rank entries according to their pEC50, from the largest number down. Put the labels in the requested order and list them out.
a, e, b, c, d

a = Cc1ccc(-n2cc(C(=O)NCc3cc(-c4ccccc4)on3)nn2)c(C)n1
b = Cc1nc(S(C)(=O)=O)ccc1-n1cc(C(=O)NCc2nnc(-c3ccccc3)s2)nn1
c = CC([C@H]1CCCO1)n1cc(C(=O)NCc2nnc(-c3ccccc3)s2)nn1 (stereo partly shown)
d = O=C(NCc1nnc(-c2ccccc2)s1)c1cn(C(F)(F)F)nn1
Number of compounds to sort: 4. Sort criterion: pEC50, ascending. Put the labels in the requested order and list them out.
b, c, d, a
(b: 6.57, c: 7.13, d: 7.51, a: 8.15)

A = CC1CC1n1cc(C(=O)NCc2nnc(-c3ccccc3)s2)nn1 (single isomer, unassigned) [Example 133]
B = NC(=O)Cn1cc(C(=O)NCc2nnc(-c3ccccc3)s2)nn1
Between item A and item B , which reported pEC50 is smaller? # reply format: chosen label
A
(A: 7.04, B: 8.30)

Measured values drawn from patent US20240336608A1 for this set.
